biological target: human kinase Mps-1 (Homo sapiens, UniProt P33981); construct: N-terminally GST-tagged human full length recombinant Mps-1 kinase; test: Mps-1 Kinase Assay (TR-FRET); settings: N-terminally GST-tagged human full length recombinant Mps-1; 10 μM ATP; 1 μM biotinylated peptide substrate; 60 min at 22° C.; read-out: MPS1 Inhibition, IC50 in M
Sequence (P33981 whole entry): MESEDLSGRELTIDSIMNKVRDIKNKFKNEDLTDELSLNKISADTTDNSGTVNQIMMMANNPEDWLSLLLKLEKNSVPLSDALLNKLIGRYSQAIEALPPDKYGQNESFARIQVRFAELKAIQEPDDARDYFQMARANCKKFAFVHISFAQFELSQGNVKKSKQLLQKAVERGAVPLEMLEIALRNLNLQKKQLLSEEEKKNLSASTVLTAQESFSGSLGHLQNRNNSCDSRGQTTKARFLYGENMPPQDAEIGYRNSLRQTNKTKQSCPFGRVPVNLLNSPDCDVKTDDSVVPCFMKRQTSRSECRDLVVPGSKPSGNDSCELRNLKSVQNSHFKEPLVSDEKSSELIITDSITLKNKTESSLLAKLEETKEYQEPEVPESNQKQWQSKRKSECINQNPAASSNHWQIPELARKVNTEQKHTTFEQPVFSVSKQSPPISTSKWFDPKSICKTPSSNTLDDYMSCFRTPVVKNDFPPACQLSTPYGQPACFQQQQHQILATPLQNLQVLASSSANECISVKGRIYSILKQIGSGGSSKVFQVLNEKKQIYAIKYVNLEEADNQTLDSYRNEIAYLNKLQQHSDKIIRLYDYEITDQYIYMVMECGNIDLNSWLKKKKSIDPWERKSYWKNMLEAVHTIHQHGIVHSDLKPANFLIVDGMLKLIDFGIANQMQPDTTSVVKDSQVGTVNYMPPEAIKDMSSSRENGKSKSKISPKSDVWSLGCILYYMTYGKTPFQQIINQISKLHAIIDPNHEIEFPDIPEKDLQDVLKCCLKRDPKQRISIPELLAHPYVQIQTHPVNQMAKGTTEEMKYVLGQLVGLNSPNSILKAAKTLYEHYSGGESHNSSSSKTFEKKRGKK
Values of IC50 strictly less than 60 nM map to T, and values of at least 60 nM map to F.

The following molecules have reported results that may help.
In [3]: df
Out[3]:
                                   molecule                              study_system  assigned_class
0  N#Cc1ccccc1Nc1nc2ccc(-c3cccc(C(=O)NCc4ccccc4)c3)cn2n1 [Example 9.4]  human kinase Mps-1 (Homo sapiens, UniProt P33981)               T
1  COc1ccccc1Nc1nc2ccc(-c3ccc(NC(=O)C4CC4)cc3)cn2n1 [Example 4.3]  human kinase Mps-1 (Homo sapiens, UniProt P33981)               T

Below 60 nM on IC50? Entry COc1ccccc1Nc1nc2ccc(-c3cccc(C(=O)NC4CC4)c3)cn2n1 [Example 10.1] T

Is 60 nM strictly greater than the molecule's reported IC50? molecule: N#Cc1ccccc1Nc1nc2ccc(-c3ccc(NC(=O)Nc4ccccc4)cc3)cn2n1 [Example 3.7] T

Would you kindly verify if IC50 of CN1CCN(CC(=O)Nc2ccc(-c3ccc4nc(Nc5ccccc5C(F)(F)F)nn4c3)cc2)CC1 [Example 5.4] is strictly less than 60 nM? F
